Values from ChEMBL document CHEMBL4017533

Organism: Homo sapiens
assay text: Selectivity ratio of EC50 for P2Y2 receptor R272A mutant (unknown origin) to EC50 for wild type P2Y2 receptor (unknown origin)
property name: Ratio EC50

molecule	value reported
Nc1ncnc2c1ncn2[C@@H]1O[C@H](COP(=O)(O)OP(=O)(O)OP(=O)(O)O)[C@@H](O)[C@H]1O	350
O=c1ccn([C@@H]2O[C@H](COP(=O)(O)OP(=O)(O)OP(=O)(O)O)[C@@H](O)[C@H]2O)c(=O)[nH]1 [URIDINE TRIPHOSPHATE]	350
Nc1ncnc2c1ncn2[C@@H]1O[C@H](COP(=O)(O)OP(=O)(O)OP(=O)(O)OP(=O)(O)OC[C@@H]2O[C@H](n3cnc4c(N)ncnc43)[C@@H](O)[C@H]2O)[C@@H](O)[C@H]1O	> 4000

Now consider a different molecule.
Consider the molecule shown here: CSc1nc(N)c2ncn([C@@H]3O[C@H](COP(=O)(O)OP(=O)(O)OP(=O)(O)O)[C@@H](O)[C@H]3O)c2n1 What is its recorded Ratio EC50?
350

====

test system: P2Y purinoceptor 2 (Homo sapiens, UniProt P41231, S193A)
Sequence (P41231 whole entry S193A): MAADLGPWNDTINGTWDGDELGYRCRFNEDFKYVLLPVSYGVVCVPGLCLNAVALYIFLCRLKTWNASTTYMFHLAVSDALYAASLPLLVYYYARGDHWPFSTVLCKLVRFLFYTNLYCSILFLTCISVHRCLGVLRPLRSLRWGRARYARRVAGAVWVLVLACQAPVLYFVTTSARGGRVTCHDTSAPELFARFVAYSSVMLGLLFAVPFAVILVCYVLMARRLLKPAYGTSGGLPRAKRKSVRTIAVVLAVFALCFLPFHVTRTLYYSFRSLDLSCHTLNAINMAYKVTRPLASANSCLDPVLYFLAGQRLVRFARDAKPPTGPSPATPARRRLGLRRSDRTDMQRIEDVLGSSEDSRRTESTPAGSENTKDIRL
assay text: Agonist activity at P2Y2 receptor S193A mutant (unknown origin) expressed in human 1321N1 astrocytoma cells assessed as increase in intracellular calcium mobilization after 1 hr by Fluo-4 AM dye based fluorescence assay
property name: pEC50
Note on units: pEC50 is unitless, being -log10 of a concentration expressed in mol/L.

Give pEC50 (P2Y purinoceptor 2 (Homo sapiens, UniProt P41231, S193A)) of the following compound: O=c1ccn([C@@H]2O[C@H](COP(=O)(O)OP(=O)(O)OP(=O)(O)O)[C@@H](O)[C@H]2O)c(=O)[nH]1 [URIDINE TRIPHOSPHATE]
7.15

====

test system: P2Y purinoceptor 2 (Homo sapiens, UniProt P41231, Y288F)
Sequence (P41231 whole entry Y288F): as the sequence (P41231 whole entry S193A) above, with A193S, Y288F counted along it
assay text: Agonist activity at P2Y2 receptor Y288F mutant (unknown origin) expressed in human 1321N1 astrocytoma cells assessed as increase in intracellular calcium mobilization after 1 hr by Fluo-4 AM dye based fluorescence assay
property name: pEC50
Please treat pEC50 as minus the base-10 logarithm of the molar concentration.

Value lookup for pEC50; key = O=c1ccn([C@@H]2O[C@H](COP(=O)(O)OP(=O)(O)OP(=O)(O)O)[C@@H](O)[C@H]2O)c(=O)[nH]1 [URIDINE TRIPHOSPHATE]
6.04
